Target: PCSK9 (Homo sapiens)
Sequence (Q8NBP7 153-692): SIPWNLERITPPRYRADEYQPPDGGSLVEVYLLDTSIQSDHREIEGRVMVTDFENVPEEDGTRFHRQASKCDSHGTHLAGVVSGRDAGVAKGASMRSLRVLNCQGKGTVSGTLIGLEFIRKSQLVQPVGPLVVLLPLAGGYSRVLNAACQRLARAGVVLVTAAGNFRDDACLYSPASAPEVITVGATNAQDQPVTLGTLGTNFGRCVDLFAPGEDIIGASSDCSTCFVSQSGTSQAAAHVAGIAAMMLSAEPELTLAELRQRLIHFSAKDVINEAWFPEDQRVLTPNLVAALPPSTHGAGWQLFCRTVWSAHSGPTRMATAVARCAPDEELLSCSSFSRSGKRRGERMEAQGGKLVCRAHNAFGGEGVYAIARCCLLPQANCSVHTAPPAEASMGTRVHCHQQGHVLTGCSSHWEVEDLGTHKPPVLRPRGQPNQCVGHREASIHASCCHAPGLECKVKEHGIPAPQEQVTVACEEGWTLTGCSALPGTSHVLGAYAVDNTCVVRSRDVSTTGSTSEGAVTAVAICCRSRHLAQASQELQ
Assay: PCSK9 Alexa FRET Standard assay (displacement of AlexaFluor647 tagged cyclic peptide Reagent A)
Assay type: binding
Conditions: 0.5 nM PCSK9, 20 nM AF cyclic peptide Reagent A
Numbered stars: 1 amine (or outer) side, 2 acyl side, 3 side chain; on linkers, the order of the positions; unused ones are H or OH. Bridge positions count the residues as written; N and C are the ends. Square brackets hold non-standard residues; d marks the D form. Peptide text beside a SMILES is read from it. Trp(7-aza) = N[C@@H](Cc1c[nH]c2ncccc12)C(=O)O; mXylylene = c1cc(C[*:1])cc(C[*:2])c1; Tle = CC(C)(C)[C@H](N)C(=O)O; αMeV = CC(C)[C@](C)(N)C(=O)O; Ac4c = NC1(C(=O)O)CCC1
readout_label: IC50

Return IC50 for the following compound: CC(=O)N[C@H]1CSCc2cccc(c2)CSC[C@H](C(N)=O)NC(=O)[C@H]([C@@H](C)O)NC(=O)[C@](C)(C(C)C)NC(=O)[C@H](Cc2ccc(O)cc2)NC(=O)[C@H](C)NC(=O)C2(CCC2)NC(=O)[C@H](Cc2c[nH]c3ncccc23)NC(=O)[C@H]([C@@H](C)O)NC(=O)[C@@H]2CCCN2C(=O)[C@H](Cc2ccc(O)cc2)NC(=O)[C@H](C(C)(C)C)NC1=O [Compound 185] (Ac-C[Tle]YPT[Trp(7-aza)][Ac4c]AY[αMeV]T[dC]-NH2; linker 1-12 via mXylylene) 1 to 100 nM

----------
Target: human PCSK9 / human LDLR EGFa domain interaction (Homo sapiens, UniProt Q8NBP7)
Sequence (Q8NBP7 31-152 partner limits assumed, one chain of several): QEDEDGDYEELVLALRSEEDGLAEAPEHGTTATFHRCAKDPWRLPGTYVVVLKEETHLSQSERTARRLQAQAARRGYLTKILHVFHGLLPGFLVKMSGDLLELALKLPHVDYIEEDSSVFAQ
Experiment: TR-FRET assay of inhibition of the PCSK9-LDLR protein-protein interaction
Details: 20 nM avitag-biotinylated human PCSK9, 20 nM his-tagged human LDLR EGFa domain, 2 hours, room temperature
pIC50: −log10 of the molar value. Numbered stars: 1 amine (or outer) side, 2 acyl side, 3 side chain; on linkers, the order of the positions; unused ones are H or OH. Bridge positions count the residues as written; N and C are the ends. Square brackets hold non-standard residues; d marks the D form. Peptide text beside a SMILES is read from it. Trp(7-aza) = N[C@@H](Cc1c[nH]c2ncccc12)C(=O)O; X7 = O=C(CCSCc1cccc(CSCCN[*:1])c1)[*:2]; 1Nal = N[C@@H](Cc1cccc2ccccc12)C(=O)O; mXylylene = c1cc(C[*:1])cc(C[*:2])c1; 4Pal = N[C@@H](Cc1ccncc1)C(=O)O; Aad = N[C@@H](CCCC(=O)O)C(=O)O; Chg = N[C@H](C(=O)O)C1CCCCC1; Tle = CC(C)(C)[C@H](N)C(=O)O; αMeV = CC(C)[C@](C)(N)C(=O)O; NMeV = CN[C@H](C(=O)O)C(C)C; S5 = C=CCCC[C@](C)(N)C(=O)O; Nva = CCC[C@H](N)C(=O)O; Aib = CC(C)(N)C(=O)O; Mpa = O=C(O)CCS
readout_label: pIC50

CCC[C@@H]1NC(=O)[C@H](Cc2c[nH]c3ncccc23)NC(=O)[C@H]([C@@H](C)O)NC(=O)[C@@H]2CCCN2C(=O)[C@H](Cc2ccc(O)cc2)NC(=O)[C@H](C(C)(C)C)NC(=O)CCSCc2cccc(c2)CSC[C@@H](C(N)=O)NC(=O)[C@H](CCC(=O)O)NC(=O)[C@H](C2CCCCC2)NC(=O)[C@H](Cc2ccc(O)cc2)NC(=O)[C@H](C)NC1=O [Compound 171] ([Mpa][Tle]YPT[Trp(7-aza)][Nva]AY[Chg]EC-NH2; linker 1-12 via mXylylene) : 4.68 to 6.00
C=CCCC[C@]1(C)NC(=O)[C@H](Cc2cccc3ccccc23)NC(=O)[C@H]([C@@H](C)O)NC(=O)[C@@H]2CCCN2C(=O)[C@H](Cc2ccc(O)cc2)NC(=O)[C@H](C(C)(C)C)NC(=O)[C@@H](NC(C)=O)CCCC(=O)NCCCC[C@@H](C(N)=O)NC(=O)[C@](C)(CCCC=C)NC(=O)[C@H](CCC)NC(=O)[C@H](Cc2ccc(O)cc2)NC(=O)[C@H](C)NC1=O [Compound 044] (Ac-[Aad][Tle]YPT[1Nal][S5]AY[Nva][S5]K-NH2; lactam 1-12) : 6.00 to 7.00
CCC[C@@H]1NC(=O)[C@H](Cc2c[nH]c3ncccc23)NC(=O)[C@H](CC(N)=O)NC(=O)[C@H](Cc2c[nH]cn2)NC(=O)[C@H](Cc2ccc(O)cc2)NC(=O)[C@H](C(C)(C)C)NC(=O)CCSCc2cccc(c2)CSC[C@@H](C(N)=O)NC(=O)[C@H]([C@@H](C)O)NC(=O)[C@H](CCC)NC(=O)[C@H](Cc2ccc(O)cc2)NC(=O)[C@H](CCC(=O)O)NC1=O [Compound 287] ([Mpa][Tle]YHN[Trp(7-aza)][Nva]EY[Nva]TC-NH2; linker 1-12 via mXylylene) : 6.00 to 7.00
CC(C)[C@H]1C(=O)N[C@@H](Cc2ccccc2)C(=O)N2CCC[C@H]2C(=O)N[C@@H]([C@@H](C)O)C(=O)N[C@@H](Cc2cccc3ccccc23)C(=O)NC(C)(C)C(=O)N[C@@H](C)C(=O)N[C@@H](Cc2ccccc2)C(=O)N[C@@](C)(C(C)C)C(=O)N[C@@H](C)C(=O)NCCSCc2cccc(c2)CSCCC(=O)N1C [Compound 143] (cyclo([1Nal][Aib]AF[αMeV]A[X7][NMeV]FPT)) : 4.68 to 6.00

Consider the record given below.
Tell me pIC50 reported for CCC[C@@H]1NC(=O)[C@H](Cc2c[nH]c3ncccc23)NC(=O)[C@H]([C@@H](C)O)NC(=O)[C@H](Cc2ccncc2)NC(=O)[C@H](Cc2ccc(O)cc2)NC(=O)[C@H](C(C)(C)C)NC(=O)CCSCc2cccc(c2)CSC[C@@H](C(N)=O)NC(=O)[C@H]([C@@H](C)O)NC(=O)[C@H](CCC)NC(=O)[C@H](Cc2ccc(O)cc2)NC(=O)[C@H](CCC(=O)O)NC1=O [Compound 112] ([Mpa][Tle]Y[4Pal]T[Trp(7-aza)][Nva]EY[Nva]TC-NH2; linker 1-12 via mXylylene) 6.00 to 7.00

----------
Biological target: human PCSK9 / human LDLR EGFa domain interaction (Homo sapiens)
Assay: TR-FRET assay of inhibition of the PCSK9-LDLR protein-protein interaction
Conditions: 20 nM avitag-biotinylated human PCSK9, 20 nM his-tagged human LDLR EGFa domain, 2 hours, room temperature
Numbered stars: 1 amine (or outer) side, 2 acyl side, 3 side chain; on linkers, the order of the positions; unused ones are H or OH. Bridge positions count the residues as written; N and C are the ends. Square brackets hold non-standard residues; d marks the D form. Peptide text beside a SMILES is read from it. Trp(7-aza) = N[C@@H](Cc1c[nH]c2ncccc12)C(=O)O; mXylylene = c1cc(C[*:1])cc(C[*:2])c1; Tle = CC(C)(C)[C@H](N)C(=O)O; αMeV = CC(C)[C@](C)(N)C(=O)O; Nva = CCC[C@H](N)C(=O)O; Aib = CC(C)(N)C(=O)O; Mpa = O=C(O)CCS
List of IC50 values.

CNC(=O)[C@H]1CSCc2cccc(c2)CSC[C@H](NC(C)=O)C(=O)N[C@@H](C(C)(C)C)C(=O)N[C@@H](Cc2ccc(O)cc2)C(=O)N2CCC[C@H]2C(=O)N[C@@H]([C@@H](C)O)C(=O)N[C@@H](Cc2c[nH]c3ncccc23)C(=O)NC(C)(C)C(=O)N[C@@H](C)C(=O)N[C@@H](Cc2ccc(O)cc2)C(=O)N[C@@](C)(C(C)C)C(=O)N[C@@H]([C@@H](C)O)C(=O)N1 [Compound 189] (Ac-C[Tle]YPT[Trp(7-aza)][Aib]AY[αMeV]T[dC]-NHMe; linker 1-12 via mXylylene) : 21 to 50 µM

Next, consider the following compound.
Specify reported IC50 for the compound shown: CCC[C@@H]1NC(=O)[C@H](Cc2c[nH]c3ncccc23)NC(=O)[C@H]([C@@H](C)O)NC(=O)[C@@H]2CCCN2C(=O)[C@H](Cc2ccc(O)cc2)NC(=O)[C@H](C(C)(C)C)NC(=O)CCSCc2cccc(c2)CSC[C@@H](C(N)=O)NC(=O)[C@H]([C@@H](C)O)NC(=O)[C@H](CCC(=O)O)NC(=O)[C@H](Cc2ccc(O)cc2)NC(=O)[C@H](C)NC1=O [Compound 160] ([Mpa][Tle]YPT[Trp(7-aza)][Nva]AYETC-NH2; linker 1-12 via mXylylene) 0.1 to 1 µM

----------
Target: human PCSK9 / human LDLR EGFa domain interaction (Homo sapiens, UniProt Q8NBP7)
Assay: TR-FRET assay of inhibition of the PCSK9-LDLR protein-protein interaction
Settings: 20 nM avitag-biotinylated human PCSK9, 20 nM his-tagged human LDLR EGFa domain, 2 hours, room temperature
Numbered stars: 1 amine (or outer) side, 2 acyl side, 3 side chain; on linkers, the order of the positions; unused ones are H or OH. Bridge positions count the residues as written; N and C are the ends. Square brackets hold non-standard residues; d marks the D form. Peptide text beside a SMILES is read from it. Trp(7-aza) = N[C@@H](Cc1c[nH]c2ncccc12)C(=O)O; X5 = O=C([C@H](Cc1cnco1)N[*:1])[*:2]; mXylylene = c1cc(C[*:1])cc(C[*:2])c1; Tle = CC(C)(C)[C@H](N)C(=O)O; αMeV = CC(C)[C@](C)(N)C(=O)O; hSer = N[C@@H](CCO)C(=O)O; Nva = CCC[C@H](N)C(=O)O; Ac3c = NC1(C(=O)O)CC1; Mpa = O=C(O)CCS
Listed here are compounds together with their documented IC50.

CCC[C@@H]1NC(=O)[C@H](Cc2c[nH]c3ncccc23)NC(=O)[C@H]([C@@H](C)O)NC(=O)[C@H](Cc2cnco2)NC(=O)[C@H](Cc2ccc(O)cc2)NC(=O)[C@H](C(C)(C)C)NC(=O)CCSCc2cccc(c2)CSC[C@@H](C(N)=O)NC(=O)[C@H]([C@@H](C)O)NC(=O)[C@H](CCC)NC(=O)[C@H](Cc2ccc(O)cc2)NC(=O)[C@H](CCC(=O)O)NC1=O [Compound 106] ([Mpa][Tle]Y[X5]T[Trp(7-aza)][Nva]EY[Nva]TC-NH2; linker 1-12 via mXylylene) : 100 to 1000 nM
CCC[C@@H]1NC(=O)[C@H](Cc2c[nH]c3ncccc23)NC(=O)[C@H]([C@@H](C)O)NC(=O)[C@@H]2CCCN2C(=O)[C@H](Cc2ccc(O)cc2)NC(=O)[C@H](C(C)(C)C)NC(=O)CCSCc2cccc(c2)CSC[C@@H](C(N)=O)NC(=O)[C@H]([C@@H](C)O)NC(=O)[C@H](CCC)NC(=O)[C@H](Cc2ccc(O)cc2)NC(=O)[C@H](CCO)NC1=O [Compound 158] ([Mpa][Tle]YPT[Trp(7-aza)][Nva][hSer]Y[Nva]TC-NH2; linker 1-12 via mXylylene) : 1000 to 21000 nM

In one line, give reported IC50 of the entry CCC[C@@H]1NC(=O)[C@H](Cc2c[nH]c3ccccc23)NC(=O)[C@H]([C@@H](C)O)NC(=O)[C@@H]2CCCN2C(=O)[C@H](Cc2ccc(O)cc2)NC(=O)[C@H](C(C)(C)C)NC(=O)CCSCc2cccc(c2)CSC[C@@H](C(N)=O)NC(=O)[C@H]([C@@H](C)O)NC(=O)[C@](C)(C(C)C)NC(=O)[C@H](Cc2ccc(O)cc2)NC(=O)[C@H](C)NC1=O [Compound 177] ([Mpa][Tle]YPTW[Nva]AY[αMeV]TC-NH2; linker 1-12 via mXylylene) . 1000 to 21000 nM

Name the recorded IC50 of the compound listed here: CC(=O)N[C@H]1CSCc2cccc(c2)CSC[C@H](C(N)=O)NC(=O)[C@H]([C@@H](C)O)NC(=O)[C@](C)(C(C)C)NC(=O)[C@H](Cc2ccc(O)cc2)NC(=O)[C@H](C)NC(=O)C2(CC2)NC(=O)[C@H](Cc2c[nH]c3ncccc23)NC(=O)[C@H]([C@@H](C)O)NC(=O)[C@@H]2CCCN2C(=O)[C@H](Cc2ccc(O)cc2)NC(=O)[C@H](C(C)(C)C)NC1=O [Compound 191] (Ac-C[Tle]YPT[Trp(7-aza)][Ac3c]AY[αMeV]T[dC]-NH2; linker 1-12 via mXylylene) 1 to 100 nM
